- Experiment notes: inhibition of 3D7 malaria parasite growth – strain 3D7 (AID 2306);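 further: 0% = DMSO wells and 100% = chloroquine plus artemisinin control wells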
- Test settings: P. falciparum 3D7 erythrocytic growth, LDH absorbance, 72 h; at 2 µM; active compounds read high
Known growth inhibition of a selection of compounds
Just the number in %, nothing appended.

Some compounds with known growth inhibition results, for comparison:
> print(dat)
                                   compound  result.number
1  CC(C)(C)C1CC(=O)C[C@@H]2C(=O)N(C3CCCCC3)C(=O)[C@H]12 (stereo not given in full)             97
2  CNC(=O)C(NC(=O)c1ccccc1C(=O)OC)c1ccccc1 (stereo not given)             96
3  CCCCCN1CCCCC(NS(=O)(=O)c2ccc(C(=O)Nc3cccc(C(F)(F)F)c3)cc2)C1 (stereo not given)             93
4  N#Cc1cccc(NC(=O)c2cccc(S(=O)(=O)NC3CCN(CC4CCCCC4)C3)c2)c1 (stereo not given)            101
5  O=S(=O)(NCCN1CCCC1)c1ccc(-c2ccc(CNCc3ccc(F)cc3)cc2)cc1             94
6  CN=C(N)c1ccc(NC(=O)c2ccc(C(=O)Nc3ccc(C(N)=NC)cc3)cc2)cc1             96

In: Item under review: Cc1cccc2[nH]c(-c3cccc(-c4ccc(CNCCCN5CCCC5=O)cc4)c3)nc12 . Reported growth inhibition?
Out: 101

In: Item under review: CCCCCCN1CCCN(Cc2ccc(C(=O)Nc3ccc(F)c(F)c3)cc2)CC1 . Reported growth inhibition?
Out: 84

In: Item under review: CN(C)c1nc2cc(-n3cnc4cc(-c5ccc(Cl)cc5)sc4c3=O)ccc2n1CCCN1CCCCC1 . Reported growth inhibition?
Out: 97

In: Item under review: COc1cccc(C2CCN(CCN3CCC(NC(=O)c4ccc(-c5ccc(C#N)cc5)cc4)CC3)CC2)c1 . Reported growth inhibition?
Out: 98

In: Item under review: O=C(/C=C/c1ccc(Cl)c(Cl)c1)NCCCCCN1CCCN(C(=O)Nc2ccc([N+](=O)[O-])cc2)CC1 . Reported growth inhibition?
Out: 97

In: Item under review: COc1cc(Nc2nccc(N3CCC(NC(=O)Nc4cc(C)ccc4C)C3)n2)cc(OC)c1OC (stereo not given) . Reported growth inhibition?
Out: 91

In: Item under review: O=C1c2ccc([N+](=O)[O-])cc2C(=O)N1c1ccc2[nH]ncc2c1 . Reported growth inhibition?
Out: 87

In: Item under review: Nc1nonc1-c1nc2c(-c3cccc(Cl)c3)nccc2n1CCCNC(=O)Cc1ccc(Cl)cc1 . Reported growth inhibition?
Out: 94

In: Item under review: CCCOc1ccccc1-c1nc2[nH]c3c(c2c(=O)[nH]1)CCN(C)C3 . Reported growth inhibition?
Out: 87

In: Item under review: CCCNC(=O)c1cncc(-c2ccc(CNC3Cc4ccccc4C3)cc2)c1 . Reported growth inhibition?
Out: 97

In: Item under review: COc1ccc(OC)c(-c2ccc(O)c(CNCC(C)c3ccccc3)c2)c1 (stereo not given) . Reported growth inhibition?
Out: 98

In: Item under review: CC(C)CCN(Cc1cncn1Cc1cccc(Cl)c1)C(=O)c1cncc(-c2ccccc2)c1 . Reported growth inhibition?
Out: 99

In: Item under review: Nc1cc(-c2cc3c(OCc4ccccc4)cccc3[nH]2)ccn1 . Reported growth inhibition?
Out: 85

In: Item under review: CO/C(=C\C=C\c1cc2cc(Cl)c(Cl)cc2[nH]1)C(=O)NC1CCN(CCNc2ccccc2)CC1 . Reported growth inhibition?
Out: 102
